Values compiled from paper PMC3284452.

measurement-notes: Estimation of tracer defluorination by kinetic modeling of cortical bone uptake
Format: in vivo, piglets
experimental-parameters: male, Swedish landrace, pig, plasma, intravenous, piglets, average; read-out: t1/2 (defluorination), average
recorded-metric: half-life (h)
Respond numerically; units are h and should not be typed.

Query: Look at this molecule and give its reported half-life. COc1cc2c(cc1OCC[18F])CCN1CC(CC(C)C)C(O)CC21 (centres unmarked) [[^18F]FE-DTBZ]
Response: 1.06

Query: # get_value(readout='half-life', item= COc1cc2c(cc1OCCF)CCN1C[C@@H](CC(C)C)[C@H](O)C[C@H]21 [[^18F]FE-DTBZ-d4] )
Response: 7.23
